Values from patent US11840521B2

biological target: MRGPRX4 (Homo sapiens); assay: MRGPR X4 antagonist activity, IP-One Gq HTRF assay in stably transfected HEK cells (versus agonist bilirubin, deoxycholic acid, conjugated bilirubin, urobilin, obeticholic acid or BAR502); assay type: cell-based; design: expressed in transfected cells; host or cells: HEK cells, stably transfected; settings: versus 100 μM conjugated bilirubin; read-out: IC50 (Conjugated Bilirubin Agonist)
Bucketed by reported IC50, buckets being low (below 20 nM), medium (20 nM to below 30 nM), high (30 nM or more)

**Query** Which class does Cc1cc(COc2ccc(C(F)(F)F)cc2Cl)cc(C(=O)O)c1 fall in?
**Result** medium

**Query** Textbook exercise: identify the category of the compound given here, O=C(O)c1cccc(COc2ccc(C(F)(F)F)cc2Cl)c1 , according to its measured value.
**Result** high

**Query** Please indicate the class for O=C(O)c1cc(F)cc(COc2ccc(C(F)(F)F)cc2Cl)c1 based on its IC50.
**Result** low

**Query** Exercise: read the entry N#Cc1cc(COc2ccc(C(F)(F)F)cc2Cl)cc(C(=O)O)c1 and state which class it falls under.
**Result** low

**Query** Sort O=C(O)c1cc(COc2ccc(C(F)(F)F)cc2Cl)ccc1F into one of the categories.
**Result** medium

**Query** Which class is correct for the following compound? O=C(O)c1cccc(COc2ccc(C(F)(F)F)cc2Cl)c1F
**Result** low

**Query** Lab note: which band did O=C(O)c1cccc(COc2ccc(Cl)cc2C(F)(F)F)n1 land in?
**Result** low

**Query** Where would O=C(O)c1cccc(COc2ccc(C(F)(F)F)cc2Cl)n1 land among the classes by reported IC50?
**Result** high

**Query** Please classify: Cc1cc(COc2ccc(C(F)(F)F)cc2C)cc(C(=O)O)c1
**Result** high

**Query** For N#Cc1cc(COc2ccc(Cl)cc2Cl)cc(C(=O)O)c1 , which IC50 bin applies?
**Result** medium

**Query** Lab note: which band did O=C(O)c1cccc(COc2ccc(Cl)cc2Cl)c1 land in?
**Result** high

###

Task for the reader: assign each of the following compounds its reported pIC50.
molecular target: MRGPRX4 (Homo sapiens, UniProt Q96LA9); test: MRGPR X4 antagonist activity, IP-One Gq HTRF assay in stably transfected HEK cells (versus agonist bilirubin, deoxycholic acid, conjugated bilirubin, urobilin, obeticholic acid or BAR502); format: cell-based; parameters: expressed in transfected cells; host or cells: HEK cells, stably transfected; conditions: versus 10 μM Bilirubin agonist; HEK cells expressing human MRGPR X4; read-out: MRGPR4 Antagonist Activity
Sequence (Q96LA9 whole entry): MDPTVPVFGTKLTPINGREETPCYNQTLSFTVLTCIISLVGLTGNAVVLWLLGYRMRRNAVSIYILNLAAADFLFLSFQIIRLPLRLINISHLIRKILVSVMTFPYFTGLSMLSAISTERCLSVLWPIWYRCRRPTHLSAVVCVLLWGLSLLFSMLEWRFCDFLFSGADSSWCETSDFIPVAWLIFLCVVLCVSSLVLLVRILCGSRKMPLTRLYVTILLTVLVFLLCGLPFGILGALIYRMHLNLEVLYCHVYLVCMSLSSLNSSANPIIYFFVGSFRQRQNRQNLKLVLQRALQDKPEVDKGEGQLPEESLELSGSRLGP
pIC50: −log10 of the molar value.

Entry O=C(N[C@@H](Cc1ccc(O)cc1)C(=O)O)c1cccc(COc2ccc(C(F)(F)F)cc2Cl)c1 — recorded pIC50 = 6.30 to 7.00

Notebook: CC(C)c1ccccc1OCc1cccc(C(=O)O)c1 , pIC50 read as < 5.60

Just so you know, measured pIC50 for Cc1cc(C(F)(F)F)ccc1OCc1cc(C#N)cc(C(=O)O)c1 came out at > 7.00

Quick note, pIC50 for O=C(O)c1cccc(COc2ccc(Cl)c(Cl)c2Cl)c1 landed at > 7.00

The recorded pIC50 for entry O=C(O)Cc1cccc(COc2ccc(Cl)cc2Cl)c1 equals < 5.60

So, O=C(O)c1cccc(COc2ccc(C(F)(F)F)cn2)c1 ? Its pIC50 was 5.60 to 6.00

The compound Cc1cc(Cl)ccc1OCc1cccc(C(=O)O)c1F showed pIC50 equal to > 7.00

According to the records, this compound O=C(O)c1nc(COc2ccc(C(F)(F)F)c(Cl)c2)ccc1F displays pIC50 of > 7.00

The compound identified as O=C(O)c1cccc(COc2ccc(C(F)F)cc2F)c1 registered its pIC50 at 6.30 to 7.00

###

assay: Mouse pharmacokinetics study, 50 mg/kg oral gavage, plasma LC-MS/MS; assay type: in vivo; conditions: male C57BL/6 mice, non-fasted
Could you please report measured Cmax for the items listed next?
Provide only the numeric value, understood in µM.

Please fill in: Cmax reported for O=C(O)c1cc(F)cc(COc2ccc(C(F)(F)F)cc2Cl)c1 = 220

// recorded Cmax for O=C(O)c1cccc(COc2ccc(Cl)cc2Cl)n1 : 306

// O=C(O)c1cccc(COc2ccc(Cl)cc2Cl)c1 : Cmax value = 113

According to the records, this molecule O=C(O)c1cccc(COc2ccc(C(F)(F)F)cc2Cl)c1F displays Cmax of 230

Kindly note the recorded Cmax for O=C(O)c1cc(COc2ccc(C(F)(F)F)cc2Cl)ccc1F , which is 239

Per the records, this molecule ( O=C(O)c1cccc(COc2ccc(C(F)(F)F)cc2Cl)n1 ) has Cmax equal to 162

// recorded Cmax for CCc1cc(COc2ccc(C(F)(F)F)cc2Cl)nc(C(=O)O)c1 : 460

// field: Cmax; key: O=C(O)c1cccc(COc2ccc(Cl)cc2Cl)c1F ; value = 231

Entry Cc1cc(COc2ccc(C(F)(F)F)cc2Cl)cc(C(=O)O)c1 — recorded Cmax = 260

response.value for O=C(O)c1cccc(COc2ccc(C(F)(F)F)cc2Cl)c1 (field: Cmax) = 196

The molecule identified as Cc1cc(COc2ccc(C(F)(F)F)cc2C)cc(C(=O)O)c1 registered its Cmax at 257

Please fill in: Cmax reported for O=C(O)c1cccc(COc2ccc(Cl)c(Cl)c2Cl)c1 = 57

###

molecular target: UniProtKB Q96LA9; test: MRGPR X4 antagonist activity, IP-One Gq HTRF assay in stably transfected HEK cells (versus agonist bilirubin, deoxycholic acid, conjugated bilirubin, urobilin, obeticholic acid or BAR502); assay type: cell-based; set-up: expressed in transfected cells; host or cells: HEK cells, stably transfected; conditions: versus 10 μM Bilirubin agonist; HEK cells expressing human MRGPR X4; read-out: MRGPR4 Antagonist Activity
pIC50: −log10 of the molar value.
observable: pIC50

The molecule listed as O=C(O)c1cccc(COc2ccc3ccccc3c2)c1F has a reported pIC50 of > 7.00

In plain terms, Nc1cccc(COc2ccc(C(F)(F)F)cc2Cl)c1 has a documented pIC50 of 6.00 to 6.30

Notebook: c1cc(COc2ccc3ccccc3c2)cc(-c2nnn[nH]2)c1 , pIC50 read as > 7.00

The value of pIC50 measured for the molecule O=C(O)c1c(F)ccc(COc2ccc(C(F)(F)F)cc2Cl)c1F turned out to be > 7.00

// O=C(O)c1cccc(COc2ccc(Cl)c(Cl)c2Cl)c1F : pIC50 value = > 7.00

###

Give IC50 for every item shown.
target: UniProt:Q96LA9; assay: MRGPR X4 antagonist activity, IP-One Gq HTRF assay in stably transfected HEK cells (versus agonist bilirubin, deoxycholic acid, conjugated bilirubin, urobilin, obeticholic acid or BAR502); type: cell-based; design: expressed in transfected cells; host or cells: HEK cells, stably transfected; details: read-out: IC50 (10 μM BAR502) nM; MRGPRX4 antagonists versus 10 μM BAR502 agonist
Write it as a number; the unit nM goes unstated.

Field IC50 (entry O=C(O)c1cccc(COc2ccc(Cl)cc2C(F)(F)F)n1 ) reads 11

// IC50 value for O=C(O)c1cccc(COc2ccc(C(F)(F)F)cc2Cl)n1 : 16

O=C(O)c1cccc(COc2ccc(Cl)c(Cl)c2Cl)c1 has a reported IC50 of 20

# IC50 (compound: Cc1cc(C(F)(F)F)ccc1OCc1cc(C#N)cc(C(=O)O)c1 ) is 17

Sample CCc1cc(COc2ccc(C(F)(F)F)cc2Cl)nc(C(=O)O)c1 ; IC50 observed: 17

For O=C(O)c1cccc(COc2ccc(Cl)cc2Cl)c1 the compound record lists IC50 as 48

What the record says about O=C(O)c1cccc(COc2ccc(C(F)(F)F)cc2Cl)c1F : IC50 is 16

For this compound ( O=C(O)c1cc(F)cc(COc2ccc(C(F)(F)F)cc2Cl)c1 ), measured IC50 is 13

###

So I've got a bunch of compounds here, and I need their IC50 values.
target: MRGPRX4 (Homo sapiens); assay: MRGPR X4 antagonist activity, IP-One Gq HTRF assay in stably transfected HEK cells (versus agonist bilirubin, deoxycholic acid, conjugated bilirubin, urobilin, obeticholic acid or BAR502); format: cell-based; set-up: expressed in transfected cells; host or cells: HEK cells, stably transfected; conditions: versus 10 μM Bilirubin agonist; HEK cells expressing human MRGPR X4; read-out: MRGPR4 Antagonist Activity

Entry O=C(NCS(=O)(=O)O)c1ccc(COc2ccc(C(F)(F)F)cc2Cl)cc1 [Compound 52-3] , IC50 reported as 100 to 500 nM

Data point: O=C(O)c1cccc(COc2cccc(-c3ccccc3)c2)c1 [Compound 3-3] ; IC50 = 1000 to 2500 nM

Form field IC50, entry Cc1cc(COc2ccc3ccccc3c2)nc(C(=O)O)c1 [Compound 41-1] : < 100 nM

// recorded IC50 for O=C(NCCO)c1cccc(COc2ccc(C(F)(F)F)cc2Cl)c1 [Compound 52-16] : 100 to 500 nM

Consider Cc1cc(C(C)(C)C)ccc1OCc1cccc(C(=O)O)c1 [Compound 1-108] . Its measured IC50 is 1000 to 2500 nM

IC50 reading for Cc1ccc(OCc2cccc(C(=O)O)c2)c(Cl)c1 [Compound 3-2] : 500 to 1000 nM

IC50 reported for this compound O=C(O)c1cc(Cl)cc(COc2ccc(C(F)(F)F)cc2Cl)c1 [Compound 1-82] : < 100 nM

Short answer for N#Cc1cc(COc2ccc(C(F)(F)F)cc2Cl)nc(C(=O)O)c1 [Compound 43-1] : IC50 was < 100 nM

compound COC(=O)c1cccc(COc2ccc(C(F)(F)F)cc2Cl)c1F [Compound 1-117] , IC50 observed: 500 to 1000 nM
